Origin of the recorded values: patent US20250333394A1

Record: pIC50 reported on TIPARP GST-(TEV) (Homo sapiens (Human), UniProt Q7Z3E1).
Sequence (Q7Z3E1 441-657): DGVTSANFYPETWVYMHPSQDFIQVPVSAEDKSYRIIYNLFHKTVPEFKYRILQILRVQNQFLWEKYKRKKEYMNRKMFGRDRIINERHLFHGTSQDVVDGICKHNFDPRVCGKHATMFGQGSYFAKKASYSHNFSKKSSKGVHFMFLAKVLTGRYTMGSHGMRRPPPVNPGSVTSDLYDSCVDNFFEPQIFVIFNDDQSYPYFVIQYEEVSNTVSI
pIC50 is defined as minus the log10 of a concentration measured in mol/L.

C[C@@H]1CN(c2ncc(C(F)(F)F)cn2)C[C@H](C)N1C(=O)[C@H]1C[C@@H](Cc2c[nH]c(=O)c(C(F)(F)F)c2)C1	8.42
C[C@@H]1CN(C(=O)[C@H]2C[C@@H](Cc3c[nH]c(=O)c(C(F)(F)F)c3)C2)CCN1c1ncc(C(F)(F)F)cn1	8.67
O=c1[nH]cc([C@H]2C[C@H](C(=O)N3CCN(c4ncc(C(F)(F)F)cn4)CC3)C2)cc1C(F)(F)F	5.79
C[C@@H]1CN(C(=O)[C@H]2C[C@@H](Cc3c[nH]c(=O)c(C(F)(F)F)c3)C2)C[C@H](C)N1c1ncc(C(F)(F)F)cn1	8.66
C[C@H]1CN(c2ncc(C(C)(C)O)cn2)CCN1C(=O)[C@H]1C[C@@H](Cc2c[nH]c(=O)c(C(F)(F)F)c2)C1	7.89

Form entry - test system: TIPARP GST-(TEV) (Homo sapiens (Human), UniProt Q7Z3E1); read-out: pIC50; molecule: C[C@@H]1CN(c2ncc(C(F)(F)F)cn2)C[C@H](C)N1C(=O)[C@H]1C[C@@H](c2c[nH]c(=O)c(C(F)(F)F)c2)C1 8.43

Form entry - test system: TIPARP GST-(TEV) (Homo sapiens (Human), UniProt Q7Z3E1); read-out: pIC50; molecule: CC(C)(O)c1cnc(N2CCN(C(=O)[C@H]3C[C@@H](Cc4c[nH]c(=O)c(C(F)(F)F)c4)C3)CC2)nc1 8.63

###

- TARGET: TIPARP GST-(TEV) (Homo sapiens (Human), UniProt Q7Z3E1)
- ASSAY PROCEDURE: TR-FRET binding assay, TIPARP
- MEASUREMENT PARAMETERS: ratio of PARP1 GST IC50 to TIPARP GST-(TEV) IC50
Exam item: assign Met to entries whose PARP1/TIPARP IC50 Ratio is below 1000 and Not met to entries at or above 1000. Note that a value of exactly 1000 receives Not met.

C[C@@H]1CN(C(=O)[C@H]2C[C@@H](c3c[nH]c(=O)c(C(F)(F)F)c3)C2)CCN1c1ncc(C(C)(C)O)cn1 [Example 7]	Met
C[C@@H]1CN(c2ncc(C(F)(F)F)cn2)C[C@H](C)N1C(=O)[C@H]1C[C@@H](c2c[nH]c(=O)c(C(F)(F)F)c2)C1 [Example 2]	Not met
C[C@@H]1CN(C(=O)[C@H]2C[C@@H](c3c[nH]c(=O)c(C(F)(F)F)c3)C2)CCN1c1ncc(C(F)(F)F)cn1 [Example 3]	Met
O=c1[nH]cc([C@H]2C[C@H](C(=O)N3CCN(c4ncc(C(F)(F)F)cn4)CC3)C2)cc1C(F)(F)F [Example 26]	Met

Check if PARP1/TIPARP IC50 Ratio falls below 1000 for C[C@@H]1CN(c2ncc(C(F)(F)F)cn2)CCN1C(=O)[C@H]1C[C@@H](c2c[nH]c(=O)c(C(F)(F)F)c2)C1 [Example 1] . Not met

###

Measured pEC50 by item
- System: DLD-1 BRCA2 (−/−) cells
- ASSAY PROCEDURE: CellTiter-Glo DLD-1 BRCA2 (−/−) cell assay for PARP1/2 inhibition
- Format: cell-based
- MEASUREMENT PARAMETERS: Homo sapiens, 144 h, 6 days, read-out: DLD-1 BRCA2 (−/−) CTG EC50
pEC50 is defined as minus the log10 of a concentration measured in mol/L.

C[C@H]1CN(C(=O)[C@H]2C[C@@H](c3c[nH]c(=O)c(C(F)(F)F)c3)C2)CCN1c1ncc(C(F)(F)F)cn1	5.24
C[C@H]1CN(c2ncc(C(F)(F)F)cn2)CCN1C(=O)[C@H]1C[C@@H](c2c[nH]c(=O)c(C(F)(F)F)c2)C1	5.95
C[C@@H]1CN(C(=O)[C@H]2C[C@@H](c3c[nH]c(=O)c(C(F)(F)F)c3)C2)CCN1c1ncc(C(C)(C)O)cn1	4.76
C[C@@H]1CN(C(=O)[C@H]2C[C@@H](Cc3c[nH]c(=O)c(C(F)(F)F)c3)C2)C[C@H](C)N1c1ncc(C(F)(F)F)cn1	5.35
C[C@H]1CN(c2ncc(C(C)(C)O)cn2)CCN1C(=O)[C@H]1C[C@@H](Cc2c[nH]c(=O)c(C(F)(F)F)c2)C1	5.97
C[C@@H]1CN(C(=O)[C@H]2C[C@@H](Cc3c[nH]c(=O)c(C(F)(F)F)c3)C2)C[C@H](C)N1c1ncc(C(C)(C)O)cn1	5.04
C[C@@H]1CN(c2ncc(C(F)(F)F)cn2)CCN1C(=O)[C@H]1C[C@@H](c2c[nH]c(=O)c(C(F)(F)F)c2)C1	4.73
C[C@@H]1CN(c2ncc(C(C)(C)O)cn2)CCN1C(=O)[C@H]1C[C@@H](Cc2c[nH]c(=O)c(C(F)(F)F)c2)C1	4.74
C[C@H]1CN(C(=O)[C@H]2C[C@@H](Cc3c[nH]c(=O)c(C(F)(F)F)c3)C2)CCN1c1ncc(C(C)(C)O)cn1	5.52
C[C@H]1CN(c2ncc(C(C)(C)O)cn2)CCN1C(=O)[C@H]1C[C@@H](c2c[nH]c(=O)c(C(F)(F)F)c2)C1	5.93

Would you kindly share the measured pEC50 for C[C@H]1CN(C(=O)[C@H]2C[C@@H](Cc3c[nH]c(=O)c(C(F)(F)F)c3)C2)CCN1c1ncc(C(F)(F)F)cn1 ? 6.00

Would you kindly share the measured pEC50 for C[C@@H]1CN(c2ncc(C(F)(F)F)cn2)C[C@H](C)N1C(=O)[C@H]1C[C@@H](c2c[nH]c(=O)c(C(F)(F)F)c2)C1 ? 4.78

Would you kindly share the measured pEC50 for C[C@@H]1CN(c2ncc(C(F)(F)F)cn2)C[C@H](C)N1C(=O)[C@H]1C[C@@H](Cc2c[nH]c(=O)c(C(F)(F)F)c2)C1 ? 5.16
